- TESTED SYSTEM: Myt1 Kinase (Homo sapiens, UniProt Q99640)
- Construct: endogenous in cells; host or cells: DAOY medulloblastoma cells (ATCC)
- PROTOCOL: AlphaLISA SureFire Ultra Human Phospho-CDK1 (Thr14) target engagement assay in DAOY cells
- Format: cell-based
- PARTICULARS: 4 h incubation, Cdk1 phosphorylated on threonine 14, read-out: TE Myt1 Kinase (AlphaLISA)

STRUCTURE SMILES STRING | EC50
NC(=O)c1c(-c2ccco2)nn(-c2c(Cl)ccc(O)c2Cl)c1N | > 1000 nM
Cc1ccc2[nH]ncc2c1-n1nc(-c2ccccc2)c(C(N)=O)c1N | > 1000 nM
NC(=O)c1c(-c2cc(Br)co2)nn(-c2c(Cl)ccc(O)c2Cl)c1N | 500 to 1000 nM
CC(C)=Cc1coc(-c2nn(-c3c(C)ccc(O)c3C)c(N)c2C(N)=O)c1 | ≤ 250 nM
Cc1ccc(O)c(C)c1-n1nc(-c2coc(Br)c2)c(C(N)=O)c1N | 250 to 500 nM

* * *

- TESTED SYSTEM: Myt1 Kinase (Homo sapiens)
- Construct: endogenous in cells
- Sequence (Q99640 1-499): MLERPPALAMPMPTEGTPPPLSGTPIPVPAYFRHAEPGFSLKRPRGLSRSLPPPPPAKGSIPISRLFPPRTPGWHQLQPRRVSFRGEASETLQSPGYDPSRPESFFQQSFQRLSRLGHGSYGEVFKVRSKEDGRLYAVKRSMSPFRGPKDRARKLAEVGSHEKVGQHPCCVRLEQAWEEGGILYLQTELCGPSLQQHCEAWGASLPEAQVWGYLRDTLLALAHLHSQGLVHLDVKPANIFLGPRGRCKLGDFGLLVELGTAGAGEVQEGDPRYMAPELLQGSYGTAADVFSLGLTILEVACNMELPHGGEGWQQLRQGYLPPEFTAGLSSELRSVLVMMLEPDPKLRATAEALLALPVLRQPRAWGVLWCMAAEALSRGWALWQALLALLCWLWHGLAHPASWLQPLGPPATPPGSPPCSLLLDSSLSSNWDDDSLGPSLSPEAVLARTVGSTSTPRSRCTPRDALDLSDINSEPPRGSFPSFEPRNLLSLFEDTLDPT
- PROTOCOL: AlphaLISA SureFire Ultra Human Phospho-CDK1 (Thr14) target engagement assay in DAOY cells
- PARTICULARS: 4 h incubation, Cdk1 phosphorylated on threonine 14, read-out: TE Myt1 Kinase (AlphaLISA)
MEASURED PROPERTY: EC50

COMPOUND | REPORTED RESULT
Cc1ccc(O)c(C)c1-n1nc(-c2ccoc2)c(C(N)=O)c1N [Compound 76] | > 1000 nM
Cc1ccc(O)c(C)c1-n1nc(-c2nccn2C)c(C(N)=O)c1N [Compound 124] | > 1000 nM
Cc1ccc(O)c(C)c1-n1nc(-c2cc3ccccc3o2)c(C(N)=O)c1N (single isomer, unassigned) [Compound 107] | ≤ 250 nM
Cc1ccoc1-c1nn(-c2c(C)ccc(O)c2C)c(N)c1C(N)=O [Compound 83] | > 1000 nM
Cc1ccc2[nH]ncc2c1-n1nc(-c2ccco2)c(C(N)=O)c1N [Compound 84] | > 1000 nM
Cc1cc(Cl)c(O)c(C)c1-n1nc(-c2ccc(Br)o2)c(C(N)=O)c1N [Compound 74] | > 1000 nM
CC#Cc1coc(-c2nn(-c3c(C)ccc(O)c3C)c(N)c2C(N)=O)c1 [Compound 114] | ≤ 250 nM
Cc1coc(-c2nn(-c3c(C)ccc(O)c3C)c(N)c2C(N)=O)c1 [Compound 90] | ≤ 250 nM
Cc1ccc(O)c(C)c1-n1nc(-c2nccs2)c(C(N)=O)c1N [Compound 122] | ≤ 250 nM
Cc1ccc(O)c(C)c1-n1nc(-c2cc(Br)co2)c(C(N)=O)c1N (single isomer, unassigned) [Compound 106] | ≤ 250 nM
Cc1ccc(O)c(C)c1-n1nc(-c2ccc(-c3ccccn3)o2)c(C(N)=O)c1N [Compound 100] | 250 to 500 nM
Cc1ccc(O)cc1-n1nc(-c2ccc(Cl)cc2)c(C(N)=O)c1N [Compound 4] | > 1000 nM
COc1ccc2oc(-c3nn(-c4c(C)ccc(O)c4C)c(N)c3C(N)=O)cc2c1 [Compound 115] | ≤ 250 nM
Cc1ccc(O)c(C)c1-n1nc(-c2ccco2)c(C(N)=O)c1N (single isomer, unassigned) [Compound 104] | ≤ 250 nM
Cc1ccc(O)c(C)c1-n1nc(-c2ccsc2)c(C(N)=O)c1N [Compound 120] | 250 to 500 nM
Cc1ccc(O)c(C)c1-n1nc(-c2cc(-c3ccncc3)co2)c(C(N)=O)c1N [Compound 95] | ≤ 250 nM
Cc1ccc(O)c(C)c1-n1nc(-c2cccs2)c(C(N)=O)c1N [Compound 119] | ≤ 250 nM

* * *

- TESTED SYSTEM: Myt1 Kinase (Homo sapiens)
- Construct: endogenous in cells
- PROTOCOL: AlphaLISA SureFire Ultra Human Phospho-CDK1 (Thr14) target engagement assay in DAOY cells
- PARTICULARS: 4 h incubation, Cdk1 phosphorylated on threonine 14, read-out: TE Myt1 Kinase (AlphaLISA)
pEC50: −log10 of the molar value.
MEASURED PROPERTY: pEC50

COMPOUND | TESTED SYSTEM | REPORTED RESULT
Cc1ccc(O)c(C)c1-n1nc(-c2ccco2)c(C(N)=O)c1N (single isomer, unassigned) [Compound 105] | Myt1 Kinase (Homo sapiens) | < 6.00
Cc1ccc(O)c(C)c1-n1nc(-c2cc(-c3ccccc3)co2)c(C(N)=O)c1N | Myt1 Kinase (Homo sapiens) | ≥ 6.60
Cc1ccc(O)c(C)c1-n1nc(-c2ccc(-c3ccccc3)o2)c(C(N)=O)c1N | Myt1 Kinase (Homo sapiens) | ≥ 6.60
Cc1ccc(O)c(C)c1-n1nc(-c2cc(-c3cccnc3)co2)c(C(N)=O)c1N | Myt1 Kinase (Homo sapiens) | ≥ 6.60
Cc1ccc(O)c(C)c1-n1nc(-c2ccc(Br)o2)c(C(N)=O)c1N | Myt1 Kinase (Homo sapiens) | ≥ 6.60
Cc1ccc(-c2nn(-c3c(C)ccc(O)c3C)c(N)c2C(N)=O)o1 | Myt1 Kinase (Homo sapiens) | ≥ 6.60
Cc1ccc(O)c(C)c1-n1nc(-c2cc(C3CC3)co2)c(C(N)=O)c1N | Myt1 Kinase (Homo sapiens) | ≥ 6.60
Cc1ccc2[nH]ncc2c1-n1nc(-c2ccc(Br)o2)c(C(N)=O)c1N | Myt1 Kinase (Homo sapiens) | < 6.00
Cc1ccc(O)c(C)c1-n1nc(-c2cc(-c3ccccn3)co2)c(C(N)=O)c1N | Myt1 Kinase (Homo sapiens) | ≥ 6.60
Cc1ccc(O)c(C)c1-n1nc(-c2ccco2)c(C(N)=O)c1N [Compound 75] | Myt1 Kinase (Homo sapiens) | ≥ 6.60
Cc1ccc(O)cc1-n1nc(-c2ccccc2)c(C(N)=O)c1N | Myt1 Kinase (Homo sapiens) | 6.00 to 6.30
Cc1ccc(O)c(C)c1-n1nc(-c2ncc[nH]2)c(C(N)=O)c1N | Myt1 Kinase (Homo sapiens) | 6.00 to 6.30
Cc1ccc(O)c(C)c1-n1nc(-c2ccc(-c3cccnc3)o2)c(C(N)=O)c1N | Myt1 Kinase (Homo sapiens) | ≥ 6.60
Cc1cc(-c2nn(-c3c(C)ccc(O)c3C)c(N)c2C(N)=O)oc1C | Myt1 Kinase (Homo sapiens) | 6.30 to 6.60
Cc1ccc(O)c(C)c1-n1nc(-c2ncco2)c(C(N)=O)c1N | Myt1 Kinase (Homo sapiens) | ≥ 6.60
Cc1ccc(O)c(C)c1-n1nc(-c2cccc(F)c2)c(C(N)=O)c1N | Myt1 Kinase (Homo sapiens) | < 6.00
Cc1ccc(O)c(C)c1-n1nc(-c2cc(C#CC(C)(C)O)co2)c(C(N)=O)c1N | Myt1 Kinase (Homo sapiens) | 6.30 to 6.60

* * *

- TESTED SYSTEM: Myt1 Kinase (Homo sapiens)
- Construct: endogenous in cells
- Sequence (Q99640 1-499): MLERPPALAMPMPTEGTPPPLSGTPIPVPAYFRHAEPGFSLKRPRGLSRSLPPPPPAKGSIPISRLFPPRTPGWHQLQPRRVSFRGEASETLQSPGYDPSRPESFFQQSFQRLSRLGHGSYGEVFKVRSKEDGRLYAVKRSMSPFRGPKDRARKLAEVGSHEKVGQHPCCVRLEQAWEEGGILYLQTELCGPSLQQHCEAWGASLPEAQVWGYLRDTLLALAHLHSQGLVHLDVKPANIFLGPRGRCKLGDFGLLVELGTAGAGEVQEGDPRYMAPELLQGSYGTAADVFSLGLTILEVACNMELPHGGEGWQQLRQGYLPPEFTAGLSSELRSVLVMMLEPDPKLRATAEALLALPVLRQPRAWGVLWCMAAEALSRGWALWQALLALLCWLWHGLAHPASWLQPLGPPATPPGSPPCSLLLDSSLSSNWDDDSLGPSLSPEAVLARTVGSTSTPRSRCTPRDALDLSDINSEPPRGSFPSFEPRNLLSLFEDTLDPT
- PROTOCOL: AlphaLISA SureFire Ultra Human Phospho-CDK1 (Thr14) target engagement assay in DAOY cells
- PARTICULARS: 4 h incubation, Cdk1 phosphorylated on threonine 14, read-out: TE Myt1 Kinase (AlphaLISA)
pEC50: −log10 of the molar value.
A collection of molecules and their measured pEC50

MOLECULE | pEC50
Cc1ccc(O)c(C)c1-n1nc(-c2ccc(-c3ccncc3)o2)c(C(N)=O)c1N [Compound 99] | ≥ 6.60
NC(=O)c1c(-c2cc3ccccc3o2)nn(-c2c(Cl)ccc(O)c2Cl)c1N [Compound 93] | 6.00 to 6.30
Cc1ccc(O)c(C)c1-n1nc(-c2cc(C(C)C)co2)c(C(N)=O)c1N [Compound 102] | ≥ 6.60
Cc1ccc(O)c(C)c1-n1nc(-c2coc3ccccc23)c(C(N)=O)c1N [Compound 82] | 6.00 to 6.30
C=Cc1coc(-c2nn(-c3c(C)ccc(O)c3C)c(N)c2C(N)=O)c1 [Compound 96] | ≥ 6.60
Cc1ccc(O)c(C)c1-n1nc(-c2ccccn2)c(C(N)=O)c1N [Compound 35] | ≥ 6.60
Cc1ccc(O)c(C)c1-n1nc(-c2cc(Br)co2)c(C(N)=O)c1N [Compound 79] | ≥ 6.60
